From: ChEMBL document CHEMBL5303573

test: The drug is tested on Clostridium sporogenes strain: ATCC15579 for biotransformation. The drug concentrations were measured before and after a 12-h incubation by liquid-chromatography-coupled mass spectrometry (LC–MS); conditions: 2 µM
MEASURED_QUANTITY: Bacterial Biotransformation

O=C1CN2Cc3c(ccc(Cl)c3Cl)N=C2N1 [ANAGRELIDE]
Compound NOT metabolized
COc1cc(C(=O)NCc2ccc(OCCN(C)C)cc2)cc(OC)c1OC [TRIMETHOBENZAMIDE]
Compound NOT metabolized
COc1cc(NC(C)CCCN)c2ncccc2c1.O=P(O)(O)O.O=P(O)(O)O (stereo not drawn) [PRIMAQUINE PHOSPHATE]
Compound NOT metabolized

* * *

assay: The drug is tested on Bacteroides fragilis strain: ATCC43859 for biotransformation. The drug concentrations were measured before and after a 12-h incubation by liquid-chromatography-coupled mass spectrometry (LC–MS); conditions: 2 µM
MEASURED_QUANTITY: Bacterial Biotransformation

Please review the following examples before continuing.
CC(C)(C(=O)O)c1ccc(C(O)CCCN2CCC(C(O)(c3ccccc3)c3ccccc3)CC2)cc1 (stereo unspecified) [FEXOFENADINE]
Compound NOT metabolized
CC(N)C12CC3CC(CC(C3)C1)C2 (stereo unspecified)
Compound NOT metabolized
N=C(N)NC(=O)Cc1c(Cl)cccc1Cl
Compound NOT metabolized
CCc1cccc2c3c([nH]c12)C(CC)(CC(=O)O)OCC3 (stereo unspecified)
Compound metabolized
CC(C)NCC(O)c1ccc(NS(C)(=O)=O)cc1 (stereo unspecified)
Compound metabolized

Turning now to a further record.
q: Looking for the measured Bacterial Biotransformation of `COc1ccc([C@@H]2Sc3ccccc3N(CCN(C)C)C(=O)[C@@H]2OC(C)=O)cc1` , can you help?
a: Compound NOT metabolized

* * *

test: The drug is tested on Bacteroides cellulosilyticus strain: DSM14838 for biotransformation. The drug concentrations were measured before and after a 12-h incubation by liquid-chromatography-coupled mass spectrometry (LC–MS); conditions: 2 µM
MEASURED_QUANTITY: Bacterial Biotransformation

Please review the following examples before continuing.
O=C(NC(Cc1cc(=O)[nH]c2ccccc12)C(=O)O)c1ccc(Cl)cc1 (centres undefined) [REBAMIPIDE]
Compound NOT metabolized
CC[C@@H](CO)NC(=O)[C@@H]1C=C2c3cccc4c3c(cn4C)C[C@H]2N(C)C1.O=C(O)/C=C\C(=O)O [METHYSERGIDE MALEATE]
Compound metabolized
Nc1ccc(/N=N/c2ccccc2)c(N)n1 [PHENAZOPYRIDINE]
Compound metabolized
CN(C(=O)CN(CCO)CC(=O)N(C)C(C)(C)Cc1ccccc1)C(C)(C)Cc1ccccc1 [OXETHAZAINE]
Compound NOT metabolized
COC(=O)[C@H]1[C@H]2C[C@@H]3c4[nH]c5cc(OC)ccc5c4CCN3C[C@H]2C[C@@H](OC(=O)c2cc(OC)c(OC)c(OC)c2)[C@@H]1OC [RESERPINE]
Compound NOT metabolized

q: Looking for the measured Bacterial Biotransformation of CCc1nn(CCCN2CCN(c3cccc(Cl)c3)CC2)c(=O)n1CCOc1ccccc1 [NEFAZODONE] , can you help?
a: Compound NOT metabolized

q: Looking for the measured Bacterial Biotransformation of Nc1nc(N)nc(-c2cc(Cl)ccc2Cl)n1.O=C(O)/C=C\C(=O)O [IRSOGLADINE MALEATE] , can you help?
a: Compound NOT metabolized

q: Looking for the measured Bacterial Biotransformation of CC(C)(C)NC[C@H](O)COc1ccccc1C1CCCC1.CC(C)(C)NC[C@H](O)COc1ccccc1C1CCCC1.O=S(=O)(O)O [PENBUTOLOL SULFATE] , can you help?
a: Compound NOT metabolized

q: Looking for the measured Bacterial Biotransformation of CC[C@@]1(O)C(=O)OCc2c1cc1n(c2=O)Cc2cc3c(CN(C)C)c(O)ccc3nc2-1 [TOPOTECAN] , can you help?
a: Compound NOT metabolized
